Sourced from patent US20240116885A1

# assay-target: hALPK1-V1092A (Homo sapiens (Human), UniProt Q96QP1, V1092A)
# Sequence (Q96QP1 whole entry V1092A): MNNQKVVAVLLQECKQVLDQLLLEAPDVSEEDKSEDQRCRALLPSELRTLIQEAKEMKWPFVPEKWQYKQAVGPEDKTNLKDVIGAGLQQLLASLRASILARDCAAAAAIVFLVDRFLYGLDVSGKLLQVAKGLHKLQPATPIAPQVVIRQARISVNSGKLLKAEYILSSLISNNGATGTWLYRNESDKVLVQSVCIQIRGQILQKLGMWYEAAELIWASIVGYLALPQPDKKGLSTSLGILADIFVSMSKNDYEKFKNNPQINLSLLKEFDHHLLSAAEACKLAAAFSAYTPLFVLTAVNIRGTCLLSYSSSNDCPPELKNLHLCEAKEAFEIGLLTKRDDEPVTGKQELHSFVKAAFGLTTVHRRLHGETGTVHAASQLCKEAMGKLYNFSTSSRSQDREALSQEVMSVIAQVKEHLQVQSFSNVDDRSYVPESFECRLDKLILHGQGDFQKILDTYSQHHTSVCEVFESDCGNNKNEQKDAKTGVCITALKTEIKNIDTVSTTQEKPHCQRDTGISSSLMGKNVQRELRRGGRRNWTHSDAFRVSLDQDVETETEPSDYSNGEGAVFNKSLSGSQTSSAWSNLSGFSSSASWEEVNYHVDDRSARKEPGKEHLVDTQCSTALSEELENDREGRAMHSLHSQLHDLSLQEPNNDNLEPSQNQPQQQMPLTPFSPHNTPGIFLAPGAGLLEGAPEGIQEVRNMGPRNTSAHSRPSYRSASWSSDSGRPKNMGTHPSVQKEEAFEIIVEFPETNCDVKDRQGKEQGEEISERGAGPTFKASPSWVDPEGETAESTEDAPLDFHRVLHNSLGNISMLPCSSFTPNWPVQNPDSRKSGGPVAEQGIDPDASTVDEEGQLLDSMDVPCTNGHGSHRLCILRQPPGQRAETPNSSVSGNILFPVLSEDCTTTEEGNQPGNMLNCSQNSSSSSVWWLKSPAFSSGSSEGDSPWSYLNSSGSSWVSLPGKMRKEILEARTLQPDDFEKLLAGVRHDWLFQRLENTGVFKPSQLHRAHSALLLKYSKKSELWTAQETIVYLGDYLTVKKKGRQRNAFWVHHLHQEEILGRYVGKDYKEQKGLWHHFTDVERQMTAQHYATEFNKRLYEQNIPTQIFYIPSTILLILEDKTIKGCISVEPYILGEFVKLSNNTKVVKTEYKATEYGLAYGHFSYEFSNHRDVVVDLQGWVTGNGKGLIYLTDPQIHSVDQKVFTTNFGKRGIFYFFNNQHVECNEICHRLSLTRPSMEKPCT
# protocol-summary: Inhibition of IL-8 secretion in HEK293 cells transiently transfected with hALPK1-V1092A
# condition-set: transient transfection, 24 hours with compound, IL-8 ELISA, relative to wild-type HEK293 cells; read-out: Half maximal inhibitory concentration (IC50) of IL-8 secretion in cells expressing V1092A mutant
Where a name gives a salt, the structure may show the parent alone.
readout: pIC50
Notebook: values listed as pIC50 are -log10 of the concentration (mol/L).

Use the examples below as a reference point.
- compound: "O=C(Nc1nc2c(Br)cccc2s1)c1c(F)cc(N2CCNCC2)cc1F [Compound T019, hydrochloride]"
  assay-target: "hALPK1-V1092A (Homo sapiens (Human), UniProt Q96QP1, V1092A)"
  readout: "pIC50"
  readout-number: 5.50
- compound: "C#Cc1cccc2sc(NC(=O)c3c(F)cc(N4CCN(C)CC4)cc3F)nc12 [Compound T047]"
  assay-target: "hALPK1-V1092A (Homo sapiens (Human), UniProt Q96QP1, V1092A)"
  readout: "pIC50"
  readout-number: 5.74
- compound: "C#Cc1cccc2sc(NC(=O)c3c(F)cc(N4CCNC[C@@H]4C)cc3F)nc12 [Compound T054]"
  assay-target: "hALPK1-V1092A (Homo sapiens (Human), UniProt Q96QP1, V1092A)"
  readout: "pIC50"
  readout-number: 6.65
- compound: "COc1cccc2sc(NC(=O)c3c(F)cc(N4CCNCC4)cc3F)nc12 [Compound T017, hydrochloride]"
  assay-target: "hALPK1-V1092A (Homo sapiens (Human), UniProt Q96QP1, V1092A)"
  readout: "pIC50"
  readout-number: 5.30
- compound: "C#Cc1cccc2sc(NC(=O)c3c(F)cc(N4CCNCC4)cc3F)nc12 [Compound T007]"
  assay-target: "hALPK1-V1092A (Homo sapiens (Human), UniProt Q96QP1, V1092A)"
  readout: "pIC50"
  readout-number: 6.39

Problem: // query pIC50 value for entry C#Cc1cccc2sc(NC(=O)c3c(F)ccc(N4CCNCC4)c3F)nc12 [Compound T060]
Result: 5.27
